Test system: HeLa-ACE2 cells
PROTOCOL DETAILS: Uninfected HeLa-ACE2 24 h live/dead cytotoxicity counter screen
Type: cell-based, human
EXPERIMENTAL CONTEXT: Sinf average of the curves
Structures can show the parent of a compound that is named as a salt.
HeLa-ACE2 uninfected cytotoxicity Sinf Average (%) for assorted compounds
State the answer as a number, implicitly in %.

O=c1[nH]ccc2cc(OC3CCNCC3)ccc12 | -100

Query: Given the entry O=C(Nc1ccc(Cl)c(S(=O)(=O)N2CCNCC2)c1O)Nc1cccc(F)c1Cl [Elubrixin tosylate] , report its measured HeLa-ACE2 uninfected cytotoxicity Sinf Average (%).
Result: -100

Query: Given the entry `CC/C(=C(/c1ccc(/C=C/C(=O)O)cc1)c1ccc2[nH]ncc2c1)c1ccc(F)cc1Cl` , report its measured HeLa-ACE2 uninfected cytotoxicity Sinf Average (%).
Result: -99

Query: Given the entry `CCOc1ccc(Cc2nc3cc(N(C)S(=O)(=O)c4cccs4)ccc3n2CC2CCCCC2)nc1` , report its measured HeLa-ACE2 uninfected cytotoxicity Sinf Average (%).
Result: -100

Query: Given the entry CSc1ccc(CN2CCCC(Nc3ccc4[nH]ncc4c3)C2)cc1 (stereo not shown) , report its measured HeLa-ACE2 uninfected cytotoxicity Sinf Average (%).
Result: -100

Query: Given the entry `O=c1[nH]c2ccc(C(F)(F)F)cc2c(-c2cc(Cl)ccc2O)c1CCO` , report its measured HeLa-ACE2 uninfected cytotoxicity Sinf Average (%).
Result: -100

Query: Given the entry CCCCCC[C@H]1C(=O)O[C@H](C)[C@H](NC(=O)c2cccc(NC=O)c2O)C(=O)O[C@@H](C)[C@@H]1OC(=O)CC(C)C [Antimycin A] , report its measured HeLa-ACE2 uninfected cytotoxicity Sinf Average (%).
Result: -100

----------
Test system: HeLa-ACE2 cells
PROTOCOL DETAILS: Total cell count in the HeLa-ACE2 TOA (time of addition) assay
Type: cell-based, human
EXPERIMENTAL CONTEXT: Homo sapiens, HeLa-ACE2; read-out: HeLa-ACE2 TOA cell count EC50 GeoMean
Where a name gives a salt, the structure may show the parent alone. Residues, ends and D or L forms follow the SMILES beside them. *: point of attachment. Cbz = O=C(OCc1ccccc1)*; CHN2 = [N-]=[N+]=C*
REPORTED PROPERTY: EC50

Here's what some known entries look like.
COc1cc(-n2cnc3cc(-c4ccc(Cl)cc4)sc3c2=O)ccc1OCCN1CCCC1 | > 9.59 µM
Cc1cccc(/C=N/Nc2cc(N3CCOCC3)nc(OCCc3ccccn3)n2)c1 | > 9.61 µM
CC(C)CC(NC(=O)OCc1ccccc1)C(=O)NC(C(=O)NCC(=O)C=[N+]=[N-])C(C)C (stereo not drawn) [Z LVG CHN2] (Cbz-Leu-Val-Gly-CHN2; configuration not given here) | > 9.59 µM
CCCCN1CC[C@H](c2ccc(N(C)C)cc2)[C@@H](COc2ccc(C(F)(F)F)cc2)C1 | > 9.61 µM
CCN(CCO)CCCC(C)Nc1ccnc2cc(Cl)ccc12 (stereo not shown) [Hydroxychloroquine sulfate] | > 9.61 µM
CCCCN(CCCC)CCC(O)c1cc2c(Cl)cc(Cl)cc2c2cc(C(F)(F)F)ccc12 (stereo not shown) [Halofantrine HCl] | > 9.61 µM

Attention now shifts to the item below.
Query: Given the entry `Nc1nc(Nc2ccc3c(c2)CC[C@@H](N2CCCC2)CC3)nn1-c1cc2c(nn1)-c1ccccc1CCC2` , report its measured EC50.
Result: > 9.59 µM
